- Target System: Induced myeloid leukemia cell differentiation protein Mcl-1 (Homo sapiens, UniProt Q07820)
- Sequence (Q07820 whole entry): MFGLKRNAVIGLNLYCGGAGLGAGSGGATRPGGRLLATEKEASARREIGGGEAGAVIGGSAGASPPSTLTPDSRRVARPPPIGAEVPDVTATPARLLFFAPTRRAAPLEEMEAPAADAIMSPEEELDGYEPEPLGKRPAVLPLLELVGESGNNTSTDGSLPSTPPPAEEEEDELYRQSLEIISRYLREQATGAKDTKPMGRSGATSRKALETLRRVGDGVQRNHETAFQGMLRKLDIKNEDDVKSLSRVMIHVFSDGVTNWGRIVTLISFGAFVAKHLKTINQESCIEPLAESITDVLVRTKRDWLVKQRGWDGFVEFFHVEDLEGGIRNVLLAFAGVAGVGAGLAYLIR
- Assay Overview: Inhibition of FAM-Bid binding to human MCL1 expressed in Escherichia coli BL21 after 30 mins by fluorescence polarization assay
Measurement Name: IC50 (nM)

| Molecule | Measurement Name | Measurement |
| --- | --- | --- |
| COC(=O)CCCN/C=C1\C(=O)C(O)=C(C(C)C)c2cc(C)c(-c3c(C)cc4c(c3O)/C(=C/NCCCC(=O)OC)C(=O)C(O)=C4C(C)C)c(O)c21 (stereo in doubt; 16) | IC50 | 947 |
| Cc1cc2c(C(C)C)c(O)c(O)c(C=O)c2c(O)c1-c1c(C)cc2c(C(C)C)c(O)c(O)c(C=O)c2c1O | IC50 | 856 |

(P) COC(=O)CN/C=C1\C(=O)C(O)=C(C(C)C)c2cc(C)c(-c3c(C)cc4c(c3O)/C(=C/NCC(=O)OC)C(=O)C(O)=C4C(C)C)c(O)c21
(Q) COC(=O)CCCCN/C=C1\C(=O)C(O)=C(C(C)C)c2cc(C)c(-c3c(C)cc4c(c3O)/C(=C/NCCCCC(=O)OC)C(=O)C(O)=C4C(C)C)c(O)c21
(R) COC(=O)CCN/C=C1\C(=O)C(O)=C(C(C)C)c2cc(C)c(-c3c(C)cc4c(c3O)/C(=C/NCCC(=O)OC)C(=O)C(O)=C4C(C)C)c(O)c21
Problem: Please put the entries in order of rising IC50. Hello, could you send the labels back in the order asked? Thank you.
Solution: Q, P, R
(Q: 740 nM, P: 1430 nM, R: 2960 nM)

###

- Assay Overview: Cytotoxicity against human melanoma cells assessed as cell growth inhibition after 48 hrs by SRB assay
- Assay type: functional
Attribute: GI50
Field: numeric (nM). Do not append units.

Guide cases for GI50, answers given:
| Compound | Measurement Units | GI50 |
| --- | --- | --- |
| COC(=O)CCCN/C=C1\C(=O)C(O)=C(C(C)C)c2cc(C)c(-c3c(C)cc4c(c3O)/C(=C/NCCCC(=O)OC)C(=O)C(O)=C4C(C)C)c(O)c21 (stereo in doubt; 16) | nM | 990 |
| Cc1cc2c(C(C)C)c(O)c(O)c(C=O)c2c(O)c1-c1c(C)cc2c(C(C)C)c(O)c(O)c(C=O)c2c1O | nM | 3220 |

Problem: Fill blank: measured GI50 of the compound COC(=O)CCCCCN/C=C1\C(=O)C(O)=C(C(C)C)c2cc(C)c(-c3c(C)cc4c(c3O)/C(=C/NCCCCCC(=O)OC)C(=O)C(O)=C4C(C)C)c(O)c21 is ____.
Solution: 2350

###

Attribute: IC50
- Assay Overview: Cytotoxicity against human DU145 cells assessed as reduction in cell viability after 72 hrs by MTT assay
- Type: functional, cell-based, DU-145
- Assay Context: Homo sapiens, DU-145, 72 h

| Compound | IC50 |
| --- | --- |
| Cc1cc2c(c(O)c1-c1c(C)cc3c(c1O)/C(=C/NC1CCC(C(C)(C)C)CC1)C(=O)C(O)=C3C(C)C)/C(=C/NC1CCC(C(C)(C)C)CC1)C(=O)C(O)=C2C(C)C (stereo not drawn) | > 100 µM |
| Cc1cc2c(c(O)c1-c1c(C)cc3c(c1O)/C(=C/Nc1ccc(C(C)(C)C)cc1)C(=O)C(O)=C3C(C)C)/C(=C/Nc1ccc(C(C)(C)C)cc1)C(=O)C(O)=C2C(C)C | > 100 µM |

Alright, here's another compound for you.
Problem: Fill blank: measured IC50 of the compound Cc1cc2c(c(O)c1-c1c(C)cc3c(c1O)/C(=C/NC(C)(C)C(C)(C)C)C(=O)C(O)=C3C(C)C)/C(=C/NC(C)(C)C(C)(C)C)C(=O)C(O)=C2C(C)C is ____.
Solution: > 100 µM

// data source = ChEMBL document CHEMBL3864191
